- target-or-system: UniProt Q13547
- assay-overview: Inhibition of recombinant human HDAC1 using fluorogenic RHKKAc peptide as substrate by fluorescence assay
measure-name: pIC50
Would you please state pIC50, meaning minus log10 of the concentration in mol/L, as a bare number?

Which measured pIC50 value corresponds to "O=C(CCCCCn1c2c(c3ccccc31)CCCC2)NO" ? 5.07

Item: "CN1CCc2c(n(Cc3ccc(C(=O)NO)cc3)c3ccccc23)C1" 5.29

Item: "O=C(CCCCCn1c2ccccc2c2ccccc21)NO" 4.85

---

- target-or-system: UniProt Q13547
- assay-overview: Inhibition of recombinant human HDAC1 using fluorogenic RHKKAc peptide as substrate by fluorescence assay
Would you mind telling me the reported pIC50 of each entry?
Would you please state pIC50, meaning minus log10 of the concentration in mol/L, as a bare number?

Which measured pIC50 value corresponds to "O=C(NO)c1ccc(Cn2c3ccccc3c3ccccc32)cc1" ? 4.96

Item: "CN1CCc2c(c3ccccc3n2CCCCCC(=O)NO)C1" 4.60

---

Would you mind telling me the reported IC50 of each entry?
- target-or-system: Protein deacetylase HDAC6 (Homo sapiens)
- Sequence (Q9UBN7 whole entry): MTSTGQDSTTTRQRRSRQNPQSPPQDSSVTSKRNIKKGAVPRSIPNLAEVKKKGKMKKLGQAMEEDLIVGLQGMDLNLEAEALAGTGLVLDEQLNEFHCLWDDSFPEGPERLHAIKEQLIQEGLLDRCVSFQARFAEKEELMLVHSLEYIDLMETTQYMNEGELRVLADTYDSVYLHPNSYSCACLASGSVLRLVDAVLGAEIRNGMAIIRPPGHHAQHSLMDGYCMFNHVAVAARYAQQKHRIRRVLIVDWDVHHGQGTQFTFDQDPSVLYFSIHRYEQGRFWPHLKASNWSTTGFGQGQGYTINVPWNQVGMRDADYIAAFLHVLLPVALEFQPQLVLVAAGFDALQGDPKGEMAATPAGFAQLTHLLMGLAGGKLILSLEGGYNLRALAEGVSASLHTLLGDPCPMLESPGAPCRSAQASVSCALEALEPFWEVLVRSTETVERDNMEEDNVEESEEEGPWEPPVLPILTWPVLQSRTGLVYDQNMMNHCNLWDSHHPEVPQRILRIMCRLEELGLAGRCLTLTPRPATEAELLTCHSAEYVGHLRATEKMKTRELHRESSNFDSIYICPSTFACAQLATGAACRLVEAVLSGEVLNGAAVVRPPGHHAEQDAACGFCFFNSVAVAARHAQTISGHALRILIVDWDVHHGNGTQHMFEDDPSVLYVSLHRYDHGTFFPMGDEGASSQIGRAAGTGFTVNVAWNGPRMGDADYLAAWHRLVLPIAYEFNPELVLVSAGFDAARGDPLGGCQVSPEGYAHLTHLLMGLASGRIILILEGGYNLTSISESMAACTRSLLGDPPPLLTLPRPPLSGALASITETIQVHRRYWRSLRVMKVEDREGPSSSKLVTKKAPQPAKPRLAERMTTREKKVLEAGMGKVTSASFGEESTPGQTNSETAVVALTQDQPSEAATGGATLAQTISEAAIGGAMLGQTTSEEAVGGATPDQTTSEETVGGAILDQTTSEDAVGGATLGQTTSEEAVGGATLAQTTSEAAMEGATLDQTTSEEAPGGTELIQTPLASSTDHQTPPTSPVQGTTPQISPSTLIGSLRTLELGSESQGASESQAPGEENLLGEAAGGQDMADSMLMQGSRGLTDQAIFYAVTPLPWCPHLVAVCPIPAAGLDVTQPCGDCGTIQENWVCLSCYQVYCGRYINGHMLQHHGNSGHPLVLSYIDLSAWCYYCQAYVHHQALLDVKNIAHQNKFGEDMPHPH
- assay-overview: Inhibition of recombinant human HDAC6 using fluorogenic RHKKAc peptide as substrate by fluorescence assay
Hi! Could you send only the number? It should be in nM, unit omitted.

Which measured IC50 value corresponds to "CN1CCc2c(n(CCCCCC(=O)NO)c3ccccc23)C1" ? 550

Item: "CN1CCc2c(c3ccccc3n2CCCCCC(=O)NO)C1" 213

Item: "O=C(CCCCCn1c2ccccc2c2ccccc21)NO" 62

Item: "CN1CCc2c(n(Cc3ccc(C(=O)NO)cc3)c3ccccc23)C1" 1

Item: "O=C(Cc1ccc(Cn2c3ccccc3c3ccccc32)cc1)NO" 301

Item: "O=C(CCCCCn1c2c(c3ccccc31)CCCC2)NO" 90

Item: "O=C(NO)c1ccc(CCn2c3ccccc3c3ccccc32)cc1" 180

---

- target-or-system: Histone deacetylase 1 (Homo sapiens)
- Sequence (Q13547 whole entry): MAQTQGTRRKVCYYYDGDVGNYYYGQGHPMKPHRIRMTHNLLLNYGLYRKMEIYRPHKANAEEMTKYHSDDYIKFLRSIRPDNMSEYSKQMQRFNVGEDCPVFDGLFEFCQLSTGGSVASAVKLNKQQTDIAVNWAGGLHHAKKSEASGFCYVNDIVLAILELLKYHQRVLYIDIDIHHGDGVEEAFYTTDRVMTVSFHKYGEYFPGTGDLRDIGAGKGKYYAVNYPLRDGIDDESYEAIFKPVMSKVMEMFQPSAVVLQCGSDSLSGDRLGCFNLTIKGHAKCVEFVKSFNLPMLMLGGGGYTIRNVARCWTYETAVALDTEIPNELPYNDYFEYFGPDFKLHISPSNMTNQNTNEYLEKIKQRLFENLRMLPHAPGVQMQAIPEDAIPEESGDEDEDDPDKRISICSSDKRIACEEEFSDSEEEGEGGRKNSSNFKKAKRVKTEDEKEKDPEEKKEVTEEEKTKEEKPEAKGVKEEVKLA
- assay-overview: Inhibition of recombinant human HDAC1 using fluorogenic RHKKAc peptide as substrate by fluorescence assay
Would you mind telling me the reported IC50 of each entry?

Quick check: IC50 on Histone deacetylase 1 (Homo sapiens), item "O=C(Cc1ccc(Cn2c3ccccc3c3ccccc32)cc1)NO" ? > 30 µM

Item: "CN1CCc2c(n(CCCCCC(=O)NO)c3ccccc23)C1" > 30 µM

Item: "O=C(NO)n1c2ccccc2c2ccccc21" > 30 µM
